tested on: A498; experiment: Cytotoxicity against human A498 cells assessed as cell growth at 10^-5 M after 48 hrs by SRB assay; type: functional; details: A498, 48 h, read-out: Activity
// returns n unless growth at 10 µM is strictly below 90%, in which case y

                                item_smiles  label_value
0  COc1ccc(-c2nnc(SC/C(=N/O)c3ccccc3)n2-c2ccccc2)cc1            y
1  C=CCn1c(SC/C(=N\O)c2ccccc2)nnc1-c1ccc(OC)c(OC)c1            n
2  COc1cc(-c2nnc(SC/C(=N/O)c3ccccc3)n2-c2ccccc2)cc(OC)c1OC            n
3    CCn1c(SC/C(=N/O)c2ccccc2)nnc1-c1ccccc1            y
4  O/N=C(/CSc1nnc(-c2ccccc2)n1-c1ccccc1)c1ccccc1            y
5  COc1ccc(-c2nnc(SC/C(=N/O)c3ccccc3)n2-c2ccccc2)cc1OC            n

These measurements were taken from ChEMBL document CHEMBL2390929.
